TGT: NAD-dependent protein deacetylase sirtuin-2 (Homo sapiens)
Sequence (Q8IXJ6 whole entry): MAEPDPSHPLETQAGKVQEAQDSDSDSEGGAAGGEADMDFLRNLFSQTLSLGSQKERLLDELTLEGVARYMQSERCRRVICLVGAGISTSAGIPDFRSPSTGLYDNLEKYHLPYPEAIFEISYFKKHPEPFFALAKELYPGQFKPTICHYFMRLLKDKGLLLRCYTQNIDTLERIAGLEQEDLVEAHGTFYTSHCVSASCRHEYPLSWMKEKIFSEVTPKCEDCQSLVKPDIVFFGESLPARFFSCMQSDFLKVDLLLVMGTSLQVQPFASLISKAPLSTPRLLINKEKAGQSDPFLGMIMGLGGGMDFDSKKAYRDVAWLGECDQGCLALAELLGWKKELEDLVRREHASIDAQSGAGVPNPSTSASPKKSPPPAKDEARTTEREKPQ
ASSAY SUMMARY: Inhibition of recombinant human SIRT2 after 30 mins
pIC50: −log10 of the molar value.
MEASURED PROPERTY: pIC50

* O=C1N/C(=C\c2ccc(N3CCCC3)cc2)C(=O)N1Cc1ccc(Cl)cc1 | 4.41
* CCN(CC)c1ccc(/C=C2\NC(=O)N(Cc3ccc(C)cc3)C2=O)cc1 | 4.16
* O=C1N/C(=C\c2ccc(O)c(Cl)c2)C(=O)N1Cc1ccc(F)cc1 | 4.42

====

Entries annotated with measured IC50
TGT: NAD-dependent protein deacetylase sirtuin-1 (Homo sapiens, UniProt Q96EB6)
Sequence (Q96EB6 whole entry): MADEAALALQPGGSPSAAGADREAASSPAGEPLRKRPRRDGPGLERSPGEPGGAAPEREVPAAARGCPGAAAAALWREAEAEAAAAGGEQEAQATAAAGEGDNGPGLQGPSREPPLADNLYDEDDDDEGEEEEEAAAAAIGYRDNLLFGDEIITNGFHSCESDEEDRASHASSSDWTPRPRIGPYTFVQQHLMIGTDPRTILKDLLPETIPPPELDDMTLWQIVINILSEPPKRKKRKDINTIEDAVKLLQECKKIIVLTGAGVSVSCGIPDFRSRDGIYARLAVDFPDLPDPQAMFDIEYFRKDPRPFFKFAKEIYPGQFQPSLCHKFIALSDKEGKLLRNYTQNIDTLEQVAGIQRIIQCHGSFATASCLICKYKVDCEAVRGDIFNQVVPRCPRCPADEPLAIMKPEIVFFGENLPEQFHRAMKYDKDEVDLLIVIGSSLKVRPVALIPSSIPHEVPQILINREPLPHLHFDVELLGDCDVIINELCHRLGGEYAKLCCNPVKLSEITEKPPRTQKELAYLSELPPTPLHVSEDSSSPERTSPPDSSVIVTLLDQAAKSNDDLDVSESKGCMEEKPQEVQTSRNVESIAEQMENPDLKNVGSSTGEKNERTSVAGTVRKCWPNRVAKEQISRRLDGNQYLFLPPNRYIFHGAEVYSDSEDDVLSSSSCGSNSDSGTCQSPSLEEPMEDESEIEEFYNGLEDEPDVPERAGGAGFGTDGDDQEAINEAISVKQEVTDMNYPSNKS
ASSAY SUMMARY: Inhibition of recombinant human SIRT1 after 30 mins
MEASURED PROPERTY: IC50 (µM)

• CCN(CC)c1ccc(/C=C2\NC(=O)N(Cc3ccc(C)cc3)C2=O)cc1 = 94
• O=C1N/C(=C\c2ccc(O)c(Cl)c2)C(=O)N1Cc1ccc(F)cc1 = 32.1
• O=C1N/C(=C\c2ccc(N3CCCC3)cc2)C(=O)N1Cc1ccc(Cl)cc1 = 38.6
